experiment: in vitro; conditions: PAMPA, pH 7.4, log(Pe)_avg
Positions of bridges follow the written chain, without caps; N, C: chain ends. Non-standard residues stand in square brackets, D forms with d. Residues, ends and D or L forms follow the SMILES beside them. Cha = N[C@@H](CC1CCCCC1)C(=O)O; NMeC = CN[C@@H](CS)C(=O)O; NMeA = CN[C@@H](C)C(=O)O; Nva = CCC[C@H](N)C(=O)O; NPrGly = CCCNCC(=O)O
For each of the compounds below, state its Papp at 10 µM.
One number for each entry, in ×10⁻⁶ cm/s.

>  <compound>
CCCN1CC(=O)N[C@@H](CC(C)C)C(=O)N2CCC[C@@H]2C(=O)N(C)[C@@H](C)C(=O)N[C@@H](CC2CCCCC2)C(=O)N(C)[C@@H](C)C(=O)N[C@@H](CC(C)C)C(=O)N(C)[C@H](C(=O)OCC)CSCC(=O)N[C@@H](CC(C)C)C1=O [LB12] ({CH2CO}-L[NPrGly]L[dP][NMeA][Cha][NMeA]L[NMeC]-OEt; thioether N-9)

>  <unit_name>
×10⁻⁶ cm/s

>  <Papp at 10 µM>
0.0593

$$$$

Let's switch to this compound now.
INPUT: Entry CCC[C@@H]1NC(=O)CN(CCC)C(=O)[C@H](CC(C)C)NC(=O)CSC[C@@H](C(=O)OCC)N(C)C(=O)[C@H](CC(C)C)NC(=O)[C@H](C)N(C)C(=O)[C@H](CC2CCCCC2)NC(=O)[C@H](C)N(C)C(=O)[C@H]2CCCN2C1=O [LB11] ({CH2CO}-L[NPrGly][Nva][dP][NMeA][Cha][NMeA]L[NMeC]-OEt; thioether N-9) has what Papp at 10 µM?
OUTPUT: 0.551
